Entries and their IC50
Tested on: MCF-7/NOD2 cells, MDP-induced IL-8 secretion
Assay: inhibition of NOD2-driven IL-8 release, SAR follow-up, MCF-7/NOD2 cells, MDP stimulus (AID 2260)
Calls of active or inactive are those of the source. No rule for the calls is given here.

Cc1ccc(S(=O)(=O)n2c(N)nc3ccccc32)cc1
> 25 µM (inactive)
Cc1ccc(S(=O)(=O)n2c(N)nc3cc(C)c(C)cc32)cc1
> 5 µM (inactive)
Nc1nc2ccccc2n1S(=O)(=O)c1ccc([N+](=O)[O-])cc1
> 5 µM (inactive)
O=C(O)c1c(NC(=O)N2CCOCC2)sc2c1CCCC2
> 25 µM (inactive)
Nc1nc2ccccc2n1S(=O)(=O)c1ccccc1
> 5 µM (inactive)

Consider the additional compound presented here.
[in] // lookup IC50 for "COc1ccc(S(=O)(=O)n2c(N)nc3ccccc32)cc1"
[out] > 5 µM (inactive)
